targetSystem: 5-HT7 (Homo sapiens, UniProt P34969)
Construct: purchased Euroscreen/BioSignal Packard Inc
Sequence (P34969 whole entry): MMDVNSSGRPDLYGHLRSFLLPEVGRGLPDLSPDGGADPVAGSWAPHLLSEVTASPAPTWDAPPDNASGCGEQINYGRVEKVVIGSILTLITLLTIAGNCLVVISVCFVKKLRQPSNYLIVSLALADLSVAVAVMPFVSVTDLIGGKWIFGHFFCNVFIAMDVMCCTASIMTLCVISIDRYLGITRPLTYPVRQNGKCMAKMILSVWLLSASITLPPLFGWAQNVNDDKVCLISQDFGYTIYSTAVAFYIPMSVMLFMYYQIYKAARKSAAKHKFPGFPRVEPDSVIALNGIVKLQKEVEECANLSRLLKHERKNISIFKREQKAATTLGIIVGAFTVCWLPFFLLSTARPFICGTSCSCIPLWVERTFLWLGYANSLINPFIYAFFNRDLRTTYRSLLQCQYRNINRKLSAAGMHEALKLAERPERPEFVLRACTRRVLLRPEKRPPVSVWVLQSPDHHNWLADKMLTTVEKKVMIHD
methodDescription: Radioligand binding, 5-HT7 ([3H]LSD)
settings: Table 4; [3H]LSD 3 nM; read-out: Binding affinity, IC50 (nM) 5-HT7
So basically, if IC50 comes in under 8000 nM it's 1.0, and if it's 8000 nM or more it's 0.0.

Record excerpt, results attached:
| compound | classAssignment |
| --- | --- |
| CC1(c2ccc(O)cc2)C(=O)c2c(N3CCNCC3)cc(Cl)cc2N(Cc2cccc([N+](=O)[O-])c2)C1=O (centres unmarked) | 0.0 |
| COc1ccc(C2(C)C(=O)c3c(N4CCNCC4)cc(Cl)cc3N(Cc3cccc(Br)c3)C2=O)cc1 (centres unmarked) | 0.0 |
| CCNc1ccc(C2(C)C(=O)c3c(N4CCNCC4)cc(Cl)cc3N(Cc3ccccc3)C2=O)cc1 (centres unmarked) | 1.0 |

Request: Lab log: compare recorded IC50 with 8000 nM; is it strictly lower for CC1(c2ccc(O)cc2)C(=O)c2c(N3CCNCC3)cc(Cl)cc2N(Cc2ccc3ccccc3n2)C1=O (centres unmarked) ?
Result: 0.0

Request: Lab log: compare recorded IC50 with 8000 nM; is it strictly lower for COc1ccc(C2(C)C(=O)c3c(N4CCNCC4)cc(Cl)cc3N(Cc3ccccc3OC)C2=O)cc1 (centres unmarked) ?
Result: 1.0

Request: Lab log: compare recorded IC50 with 8000 nM; is it strictly lower for CC1(c2ccc(N)cc2)C(=O)c2c(N3CCNCC3)cc(Cl)cc2N(Cc2ccccc2)C1=O (centres unmarked) ?
Result: 0.0

Request: Lab log: compare recorded IC50 with 8000 nM; is it strictly lower for CC1(c2ccc(O)cc2)C(=O)c2c(N3CCNCC3)cc(Cl)cc2N(Cc2cccc(Br)c2)C1=O (centres unmarked) ?
Result: 0.0

Request: Lab log: compare recorded IC50 with 8000 nM; is it strictly lower for COc1cccc(C2(C)C(=O)c3c(N4CCNCC4)cc(Cl)cc3N(Cc3ccccc3)C2=O)c1 (centres unmarked) ?
Result: 1.0

Data credit: patent US20080275058A1
